Sourced from ChEMBL document CHEMBL1201862

Test system: MDA-MB-435
Assay: NCI tumour cell line growth inhibition, 48 h
Calls of active or inactive are those of the source. No stated cut-off is given here; in the data, active = GI50 up to about 1.1 µM and inactive = higher.
quantity: GI50

>>> df
                                   compound  quantity         result_value
0  N#CC(Nc1ccccc1)c1ccc(C(C#N)Nc2ccccc2)cc1 (stereo not given)      GI50   13.7 µM (inactive)
1  O=C(NN=C(c1ccccc1)c1ccccc1)/C(O)=C/C(=O)c1ccc(Cl)cc1      GI50   69.3 µM (inactive)
2  CC1(C)C2CC3C4CC5(Nc6ccccc6C5N41)[C@]3(C)CC2=O (stereo not given in full)      GI50   > 50 µM (inactive)
3  NC(CCCCCP(=O)(c1ccccc1)C1C=CC=CC1)C(=O)O (stereo not given)      GI50  > 100 µM (inactive)
4  CCOC(=O)n1ccc2c(C(=O)OC)c(C(=O)OC)cc(/C(=C/C(=O)OC)C(=O)OC)c21      GI50  > 100 µM (inactive)
